target: T1, monkey CD3e (Macaca fascicularis) on PBMC (Macaca fascicularis, UniProt Q95LI5 22-198)
T1 construct: Target on PBMC from Macaca fascicularis; also called mfCD3e; monkey PBMC
T1 sequence (Q95LI5 22-198 limits assumed): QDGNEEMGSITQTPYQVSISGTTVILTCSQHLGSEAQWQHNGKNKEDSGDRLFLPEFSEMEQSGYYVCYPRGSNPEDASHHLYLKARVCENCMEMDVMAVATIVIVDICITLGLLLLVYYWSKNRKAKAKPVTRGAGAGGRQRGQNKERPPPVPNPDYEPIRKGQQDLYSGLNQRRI
experimentSummary: flow cytometry, Macaca fascicularis PBMC, antibody concentration not given, anti-human IgG Fc-Alexa Fluor647 (1:500), anti-hTcRβ-PerCP (1:30)
Decide by upper right quadrant, percent of cells AF647+ / hTcRβ-PerCP+: equal to or exceeding 3% means YES, less means NO.

Worked examples follow.
binder	assignedClass
10A4-H2K1-IgG1-LALA (antibody, V domains shown, Humanized; human IgG1 with LALA mutations; also called H2K1 (humanized 10A4)) VH: QVQLVQSGAEVKKPGASVKISCKASGYTFTSYYIHWVRQAPGQRLEFIGWIYPGNVNAKYNEKFKGRATITTDKSASTAYMELSSLRSEDTAVYYCAIKGGNYDWGQGTLVTVSS VL: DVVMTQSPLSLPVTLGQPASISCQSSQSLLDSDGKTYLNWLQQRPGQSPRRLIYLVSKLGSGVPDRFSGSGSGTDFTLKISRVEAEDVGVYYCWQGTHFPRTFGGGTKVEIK	NO
10A4-H2K2-IgG1-LALA (antibody, V domains shown, Humanized; human IgG1 with LALA mutations; also called H2K2 (humanized 10A4)) VH: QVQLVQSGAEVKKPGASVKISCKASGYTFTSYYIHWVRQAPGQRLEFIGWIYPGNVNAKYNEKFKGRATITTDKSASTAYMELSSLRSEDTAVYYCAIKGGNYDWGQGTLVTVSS VL: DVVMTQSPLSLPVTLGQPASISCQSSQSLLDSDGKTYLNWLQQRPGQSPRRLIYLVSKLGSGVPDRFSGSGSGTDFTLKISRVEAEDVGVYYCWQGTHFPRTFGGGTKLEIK	YES

For this binder, is measured upper right quadrant, percent of cells AF647+ / hTcRβ-PerCP+ 3% or higher? 1B1-H2K2-IgG1-LALA (antibody, V domains shown, Humanized; human IgG1 with LALA mutations; also called H2K2 (humanized 1B1)) VH: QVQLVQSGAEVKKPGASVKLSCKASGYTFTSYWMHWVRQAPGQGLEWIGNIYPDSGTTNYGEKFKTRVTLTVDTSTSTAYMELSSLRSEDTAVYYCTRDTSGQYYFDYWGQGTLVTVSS VL: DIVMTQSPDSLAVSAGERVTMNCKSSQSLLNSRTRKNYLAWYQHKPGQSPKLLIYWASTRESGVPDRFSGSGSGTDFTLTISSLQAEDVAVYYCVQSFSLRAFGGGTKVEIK
YES

Record: 10A4-H1K2-IgG1-LALA (antibody, V domains shown, Humanized; human IgG1 with LALA mutations; also called H1K2 (humanized 10A4)) VH: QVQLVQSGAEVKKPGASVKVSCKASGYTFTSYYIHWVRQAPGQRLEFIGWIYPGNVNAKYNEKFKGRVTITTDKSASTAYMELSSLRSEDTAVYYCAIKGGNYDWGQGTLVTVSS VL: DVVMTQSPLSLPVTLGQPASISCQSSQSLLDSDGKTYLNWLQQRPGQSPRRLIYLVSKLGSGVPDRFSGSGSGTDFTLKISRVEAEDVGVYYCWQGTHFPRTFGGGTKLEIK
NO

Next binder up: 10A4-H4K1-IgG1-LALA (antibody, V domains shown, Humanized; human IgG1 with LALA mutations; also called H4K1 (humanized 10A4)) VH: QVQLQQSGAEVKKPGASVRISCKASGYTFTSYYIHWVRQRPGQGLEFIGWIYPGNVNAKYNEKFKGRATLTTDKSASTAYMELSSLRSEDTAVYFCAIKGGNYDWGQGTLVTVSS VL: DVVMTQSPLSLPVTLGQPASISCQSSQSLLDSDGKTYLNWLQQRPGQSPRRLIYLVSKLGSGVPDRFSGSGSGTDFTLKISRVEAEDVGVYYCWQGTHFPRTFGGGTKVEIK
YES

The reported measurements were obtained from patent US20210269525A1.
